Entries and their melting point values follow.
assay_readout: melting point

INSERT INTO assay_data (molecule, readout_value) VALUES
  ('CC(C)(O)C(O)c1cnc(C2OCCO2)s1 (stereo not given)', '130 to 131 °C'),
  ('Cc1ccc(C=CCC#N)cc1', '60 to 61 °C'),
  ('CCCCCCCCCCCCCCN(C(=O)CCCCCCCCCCC)C1(N)OC(CO)C(O)C(O)C1C(=O)C(N)C(=O)C(C)N (stereo not given)', '115 to 117 °C'),
  ('O=C(c1cn(C(c2ccccc2)(c2ccccc2)c2ccccc2)cn1)c1cc(Cl)cc2c1OCOC2', '175 to 182 °C'),
  ('O=C(O)c1ccc2nc(-n3nc4c(c3O)-c3ccccc3CC4)sc2c1', '> 280 °C'),
  ('COc1ccc2c(c1)c(CC(=O)OCC(=O)O)c(C)n2C(=O)c1ccc(F)c(F)c1', '128 to 129 °C'),
  ('COc1cc(OC)c(C)c(C(=O)OCC(Cl)(Cl)Cl)c1C', '129 °C'),
  ('ON1Cc2ccccc2C1=S', '110 to 111 °C'),
  ('CC(=O)N(c1ccc(O)cc1)N1CCOCC1', '183 to 184 °C'),
  ('COc1ccc(C(CCc2ccccc2)C(=O)O)cc1 (stereo not given)', '92 to 97 °C');
